For Endothelin receptor type B (Homo sapiens), measured IC50 is reported for the entries below.
property: IC50 (nM)

compound | recorded-measurement
CCn1cc(C(C(=O)NS(=O)(=O)c2ccc(C(C)C)cc2)c2ccc3c(c2)OCO3)c2ccc(C(N)=O)cc21 (stereo not drawn) | 68
COc1ccccc1S(=O)(=O)NC(=O)C(c1ccc2c(c1)OCO2)c1cn(C)c2cc(C(N)=O)ccc12 (stereo not drawn) | 310
Cc1ccc(S(=O)(=O)NC(=O)C(c2ccc3c(c2)OCO3)c2cn(C)c3cc(C(N)=O)ccc23)cc1 (stereo not drawn) | 774
CCn1cc(C(C(=O)NS(=O)(=O)c2ccc(C(C)C)cc2)c2ccc3c(c2)OCO3)c2ccc(C(=O)NC)cc21 (stereo not drawn) | 210
COc1ccc(S(=O)(=O)NC(=O)C(c2ccc3c(c2)OCO3)c2cn(C)c3cc(C(N)=O)ccc23)cc1 (stereo not drawn) | 94
CC(C)c1ccc(S(=O)(=O)NC(=O)C(c2ccc3c(c2)OCO3)c2cn(C)c3cc(CN)ccc23)cc1 (stereo not drawn) | 204

[I] Cn1cc(C(C(=O)NS(=O)(=O)c2ccc(Cl)cc2)c2ccc3c(c2)OCO3)c2ccc(C(N)=O)cc21 (stereo not drawn)
[II] CCn1cc(C(C(=O)NS(=O)(=O)c2ccc(C(C)C)cc2)c2ccc3c(c2)OCO3)c2ccc(C(=O)N(C)C)cc21 (stereo not drawn)
Hi there, can you help? I need to know whether I or II has lower measured IC50. Answer with the label corresponding to your selection.
II
